Reported Isometric tension, relaxation (Mean ± SEM) values follow for various compounds
Tested on: rat aortic ring segments
Experiment: Isometric tension: vasodilation of rat aortic ring segments preconstricted with phenylephrine
Format: cell-based
Conditions: Log [M] −3.5
Please append the unit to your numeric answer.

Examples with answers:
CNCCCCO[N+](=O)[O-].O=[N+]([O-])O
88.56 ± 2.69%
CCCCC(=O)N(Cc1ccc(-c2ccccc2-c2nnn[nH]2)cc1)C(C(=O)N(C)CCCCO[N+](=O)[O-])C(C)C (stereo not shown)
50.40 ± 7.89%
O=[N+]([O-])OCCCCO [HBN, 1-Hydroxy-4-butyl nitrate]
95.69 ± 2.40%

Now turn to the next compound.
Lookup: Could you share which Isometric tension, relaxation (Mean ± SEM) value was measured for `CCCCC(=O)N(Cc1ccc(-c2ccccc2-c2nnn[nH]2)cc1)[C@H](C(=O)O)C(C)C` ?
Found: 21.98 ± 3.75%
